- EXPERIMENTAL_DETAILS: method code SF-HPLC, from DOI: 10.1016/s0223-5234(98)80011-1
- EXPERIMENTAL_PARAMETERS: pH 7.4
OUTCOME_MEASURE: logD

• O=S1CCN(c2nc(CC3CC3)nc(NC3CC3)n2)CC1 = 1.56
• OC1CN(c2nc(CC3CC3)nc(NC3CC3)n2)C1 = 1.71
• C1CN(c2nc(CC3CC3)nc(NC3CC3)n2)CCO1 = 2.33
• CCCc1nc(NCN2CCCC2=O)nc(N2CCOCC2)n1 = 1.62
• CCCCc1nc(NC2CC2)nc(N2CC3CCC(C2)O3)n1 = 3.02
• Cc1nc(NC2CC2)nc(N2CC3CCC(C2)O3)n1 = 1.84
• O=S1(=O)CCN(c2nc(CC3CC3)nc(NC3CC3)n2)CC1 = 1.76
• CCCCc1nc(NC2CC2)nc(N(CCO)CCO)n1 = 1.76
• CCCc1nc(NC2CC2)nc(N2CCOCC2)n1 = 2.11
• CCCc1nc(NCCC(=O)N(C)C)nc(N2CCOCC2)n1 = 0.67
• OCCN(CCO)c1nc(CC2CC2)nc(NC2CC2)n1 = 1.82
• C1CCC(Cc2nc(NC3CC3)nc(N3CCOCC3)n2)C1 = 3.6

====

- EXPERIMENTAL_DETAILS: method code SF-HPLC, from DOI: 10.1016/s0223-5234(98)80011-1
- EXPERIMENTAL_PARAMETERS: pH 7.4
Just a reminder that ties go to no: only logD strictly below 3 counts as yes.

• CCCCc1nc(NC2CC2)nc(N2CC(O)C2)n1 = yes
• CCCc1nc(N)nc(N2CCOCC2)n1 = yes
• COC1CN(c2nc(CC3CC3)nc(NC3CC3)n2)C1 = yes
• CCCc1nc(NC(=O)c2ccccc2)nc(N2CCOCC2)n1 = yes
• CCCc1nc(NCC)nc(N2CCCCC2)n1 = no
• CCCCc1nc(NC2CC2)nc(N2CCOCC2)n1 = yes
• CCCc1nc(NCC)nc(N2CCOCC2)n1 = yes
• CC(C)Cc1nc(NC2CC2)nc(N2CC3CCC(C2)O3)n1 = no
• C1CC(Cc2nc(NC3CC3)nc(N3CCOCC3)n2)C1 = no
• CCCc1nc(NCc2ccccc2OC)nc(N2CCOCC2)n1 = no

====

OUTCOME_MEASURE: logP

* CCCc1nc(NC)nc(N2CCOCC2)n1 | 2.02
* CCCCNc1nc(CCC)nc(N2CCOCC2)n1 | 2.78
* CCCc1nc(NCN(C)C)nc(N2CCOCC2)n1 | 1.94
* CCCc1nc(N)nc(N2CCCCC2)n1 | 2.43
* CCCc1nc(NCC(C)C)nc(N2CCOCC2)n1 | 2.65
* C=CCCNc1nc(CCC)nc(N2CCOCC2)n1 | 2.47
